- target-entity: MaoN5 (Aspergillus niger, UniProt P46882, D385S/I246M/N336S/T384N)
- Construct: His-tag (N); made in house; host or cells: Escherichia coli BL21(DE3) pET21a
- Sequence (P46882 whole entry I246M/N336S/T384N/D385S): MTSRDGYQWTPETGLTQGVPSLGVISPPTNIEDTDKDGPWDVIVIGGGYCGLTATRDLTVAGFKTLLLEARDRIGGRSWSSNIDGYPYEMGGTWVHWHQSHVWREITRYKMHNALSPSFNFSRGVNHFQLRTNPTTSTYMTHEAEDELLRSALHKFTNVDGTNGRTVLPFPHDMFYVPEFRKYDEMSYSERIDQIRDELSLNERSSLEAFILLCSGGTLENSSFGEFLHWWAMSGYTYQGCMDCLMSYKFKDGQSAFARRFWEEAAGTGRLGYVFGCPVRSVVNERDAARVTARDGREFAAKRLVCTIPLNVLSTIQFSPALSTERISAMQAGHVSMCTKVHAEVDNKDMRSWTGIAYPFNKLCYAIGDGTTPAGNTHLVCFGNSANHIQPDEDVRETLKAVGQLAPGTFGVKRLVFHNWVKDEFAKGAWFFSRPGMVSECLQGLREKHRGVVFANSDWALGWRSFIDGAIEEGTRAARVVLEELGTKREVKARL
- assay-explanation: Enzymatic N-dealkylation assay MAOs/CAOs, HPLC product release
- Assay type: biochemical
- setup-conditions: 10 mM substrate, phosphate buffer pH 7,5, 37 °C, at least 48 h
value-type: enzymatischer Abbau von Modell-N-Alkylverbindungen: MaoN5

The following molecules have reported results that may help.
>  <molecule>
CCN(C)c1ccccc1 [N-Ethyl-N-Methylanilin]

>  <target-entity>
MaoN5 (Aspergillus niger, UniProt P46882, D385S/I246M/N336S/T384N)

>  <measurement>
nein

$$$$
>  <molecule>
CN(C)c1ccc(Cc2ccc(N(C)C)cc2)cc1 [N,N,N',N'-Tetramethyl-4,4'-MDA]

>  <target-entity>
MaoN5 (Aspergillus niger, UniProt P46882, D385S/I246M/N336S/T384N)

>  <measurement>
nein

$$$$
>  <molecule>
CNc1ccc(Cc2ccc(NC)cc2)cc1 [N,N'-Dimethyl-4,4'-MDA]

>  <target-entity>
MaoN5 (Aspergillus niger, UniProt P46882, D385S/I246M/N336S/T384N)

>  <measurement>
schwach

$$$$
>  <molecule>
CCNc1ccccc1 [N-Ethylanilin]

>  <target-entity>
MaoN5 (Aspergillus niger, UniProt P46882, D385S/I246M/N336S/T384N)

>  <measurement>
schwach

$$$$
>  <molecule>
c1ccc(CNc2ccccc2)cc1 [N-Benzylanilin]

>  <target-entity>
MaoN5 (Aspergillus niger, UniProt P46882, D385S/I246M/N336S/T384N)

>  <measurement>
nein

$$$$

# context switch: different molecule, same enzymatischer Abbau von Modell-N-Alkylverbindungen: MaoN5
// lookup enzymatischer Abbau von Modell-N-Alkylverbindungen: MaoN5 for CCNc1ccc(Cc2ccc(NCC)cc2)cc1 [N,N'-Diethyl-4,4'-MDA] schwach

###

- target-entity: AaeUPO (Cyclocybe aegerita)
- Construct: purchased Aminoverse B.V
- Sequence (B9W4V6 44-371): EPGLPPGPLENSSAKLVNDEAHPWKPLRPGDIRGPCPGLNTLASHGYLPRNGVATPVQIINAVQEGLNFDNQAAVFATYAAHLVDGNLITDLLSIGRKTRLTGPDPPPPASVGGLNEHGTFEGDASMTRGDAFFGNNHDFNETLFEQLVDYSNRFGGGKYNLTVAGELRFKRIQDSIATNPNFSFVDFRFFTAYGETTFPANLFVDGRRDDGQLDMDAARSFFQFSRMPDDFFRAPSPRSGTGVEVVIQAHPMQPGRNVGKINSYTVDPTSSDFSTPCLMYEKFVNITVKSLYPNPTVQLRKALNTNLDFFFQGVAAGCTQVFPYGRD
- assay-explanation: Enzymatic N-dealkylation assay UPOs with H2O2, HPLC
- Type: biochemical, Agrocybe aegerita
- setup-conditions: 4 mM substrate, Tricine buffer 100 mM, 30 °C, at least 4 h, H2O2 added every 30 min
value-type: enzymatischer Abbau von Modell-N-Alkylverbindungen: AaeUPO

The following compounds have reported results that may help.
>  <structure-as-smiles>
CCNc1ccccc1

>  <measurement>
deg

$$$$
>  <structure-as-smiles>
CN(C)c1ccc(Cc2ccc(N(C)C)cc2)cc1

>  <measurement>
nein

$$$$
>  <structure-as-smiles>
CCN(C)c1ccccc1

>  <measurement>
nein

$$$$
>  <structure-as-smiles>
c1ccc(CNc2ccccc2)cc1

>  <measurement>
deg

$$$$

# context switch: different compound, same enzymatischer Abbau von Modell-N-Alkylverbindungen: AaeUPO
// lookup enzymatischer Abbau von Modell-N-Alkylverbindungen: AaeUPO for `CCNc1ccc(Cc2ccc(NCC)cc2)cc1` nein
